system under test: T1, cynomolgus EpCAM protein (cynomolgus, UniProt Q1WER1 27-265 (rhesus entry), limits assumed, biotinylated in the Octet assays (site not stated))
T1 construct: also called cy EpCAM; biotinylated cynomolgus EpCAM protein
T1 sequence: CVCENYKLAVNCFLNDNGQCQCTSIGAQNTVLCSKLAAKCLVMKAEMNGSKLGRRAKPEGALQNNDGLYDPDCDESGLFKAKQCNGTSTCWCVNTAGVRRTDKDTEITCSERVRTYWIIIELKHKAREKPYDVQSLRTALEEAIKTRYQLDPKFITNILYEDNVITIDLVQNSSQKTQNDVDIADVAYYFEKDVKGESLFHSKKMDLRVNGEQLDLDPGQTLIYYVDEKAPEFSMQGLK
protocol details: colorimetric ELISA
assay endpoint: Cynomolgus EpCAM/Control

Solved entries:
| binder | Cynomolgus EpCAM/Control |
| --- | --- |
| EPL82 (VHH) VHH: QVQLQESGGGLVQAGGSLKLSCTASGTILSTMAWYRQAPGKQRELVATISRGGTTNYSDSVKGRFAISRDSTKNTVYLQMNSLKPEDTAVYYCNTPLTDYGMGYNWGQGTQVTVSS | 5 |
| EPL57 (VHH) VHH: QVQLQESGGGLVHTGGSLRLSCAFSGDTFLRYAMGWFRQAPGKEREFVAAITWNGGNTDYADSLKGRFTISRDNTKNTVYLQMNSLRPEDTAVYYCAADLTFGLASSHYQYDYWGQGTQVTVSS | 27 |
| EPL120 (VHH) VHH: QVQLQESGGGLVQAGGSLRLSCAASGFIFRAASISWYRQSPGNERELVATINSGGFTNYADSVLGRFTISRDNAKNTGYLQMNSLKPEDTAVYFCAATFLRSDGQPPIWGQGTQVTVSS | 4 |

A = EPL152 (VHH) VHH: QVQLQESGGGLVQAGGSLRLSCVHSGSIFRASTMAWYRQAPGKQRELVAQIMSGGGTNYAGSVKGRFTISRDNANNTVYLQMNSLKPEDTAVYYCNAAQITSWGPKVYWGQGTQVTVSS
B = EPL60 (VHH) VHH: QVQLQESGGGLVQAGGSLRLSCAASEYILSMYRMAWYRQAPGKVRELVADMSSGGTTNYADFVKGRFTISRDNDRNTVYLQMNRLQPEDTAAYYCNVAGRTGPPSYDAFNNWGQGTQVTVSS
C = EPL153 (VHH) VHH: QVQLQESGGGLVQPGGSLRLSCAASGFTFSDWAMSWVRQAPGKGLEWVSSIHYGDHTTHYADFVKGRFTISRDDAKNTLYLQMNSLKPEDTAVYYCEKGTTRGQGTQVTVSS
D = EPL136 (VHH) VHH: QVQLQESGGGLVQPGGSLRLSCAASGDTFLRYAMGWFRQAPGKEREFVAAITWNGGNTDYAGSLKGRFTISRDNTKNTVYLQMNSLKPEDTAVYYCAADLTFGLASSHYQYDYWGQGTQVTVSS
E = EPL109 (VHH) VHH: QVQLQESGGGLVQPGGSLRLSCASSGFTLDDYTIGWFRQAPGKEREGVSCISRRDDSTYYADSVKGRFTISRDNAKNTVDLQMISLRPEDTAVYYCAATPRSYTLRCLGKFDFQGQGTQVTVSS
Sort the 5 binders by Cynomolgus EpCAM/Control; largest first, smallest last. Give me the labels in the order the question wants.
B, C, D, A, E
